# test_system: T1, recombinant human Siglec-8 extracellular domain (ECD) (human, UniProt Q9NYZ4 17-363)
# T1 construct: extracellular domain; also called Siglec-8 ECD; full Siglec-8 ECD
# T1 sequence (Q9NYZ4 17-363): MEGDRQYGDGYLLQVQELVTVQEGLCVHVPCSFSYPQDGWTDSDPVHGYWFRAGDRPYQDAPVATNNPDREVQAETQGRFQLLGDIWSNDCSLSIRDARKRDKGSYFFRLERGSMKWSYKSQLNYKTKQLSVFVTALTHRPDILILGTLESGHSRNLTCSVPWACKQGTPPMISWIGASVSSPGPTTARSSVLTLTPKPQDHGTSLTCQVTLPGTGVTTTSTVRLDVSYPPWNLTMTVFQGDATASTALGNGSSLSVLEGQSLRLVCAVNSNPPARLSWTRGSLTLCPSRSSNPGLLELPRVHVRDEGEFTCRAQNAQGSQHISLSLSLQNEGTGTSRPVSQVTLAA
# protocol_summary: ELISA, coated Siglec-8 ECD
property_label: pEC50
Worth noting: pEC50 values are minus log10 of concentrations stated in mol/L.

Illustrative cases are given below, each with its answer.
[ask] Quick one: pEC50 of RHE E-DKB (antibody, human IgG1, V domains shown, human IgG1/kappa) VH: EVQLVESGGGLVQPGGSLRLSCAASGFSLTIYGAHWVRQAPGKGLEWVGVIWAGGSTNYNSALMSRFTISKDNSKNTVYLQMNSLRAEDTAVYYCARDGSSPYYYSMDYWGQGTTVTVSS VL: EIILTQSPATLSLSPGERATLSCSATSSVSYMHWFQQKPGQAPRLWIYSTSNLASGVPARFSGSGSGTDYTLTISSLEPEDFAVYYCQQRSSYPFTFGPGTKLDIK ?
[reply] 9.54

[ask] Quick one: pEC50 of HEKFmut (antibody, human IgG1, V domains shown, human IgG1/kappa; also called HEKFmut IgG1) VH: EVQLVESGGGLVQPGGSLRLSCAASGFSLTIYGAHWVRQAPGKGLEWVGVIWAGGSTNYNSALMSRFTISKDNSKNTVYLQMNSLRAEDTAVYYCARDGSSPYYYSMEYWGQGTTVTVSS VL: EIVLTQSPATLSLSPGERATLSCSATSSVSYMHWFQQKPGQAPRLLIYSTSNLASGIPARFSGSGSGTDYTLTISSLEPEDFAVYYCQQRSSYPYTFGPGTKLDIK ?
[reply] 10.14

Proceed to the following item.
[ask] Quick one: pEC50 of HDKG (antibody, human IgG1, V domains shown, human IgG1/kappa) VH: EVQLVESGGGLVQPGGSLRLSCAASGFSLTIYGAHWVRQAPGKGLEWLSVIWAGGSTNYNSALMSRFTISKDNSKNTVYLQMNSLRAEDTAVYYCARDGSSPYYYSMEYWGQGTTVTVSS VL: EIVLTQSPATLSLSPGERATLSCSATSSVSYMHWYQQKPGQAPRLLIYSTSNLASGIPARFSGSGSGTDFTLTISSLEPEDFAVYYCQQRSSYPFTFGPGTKLDIK ?
[reply] 9.95
